The origin of these recorded values is paper PMC7830545.

molecular target: CYP3A4 (Homo sapiens); assay: Kinetics of heme reduction of inhibitor-bound CYP3A4 with sodium dithionite; parameters: Codon-optimized full-length and Δ3–22 human CYP3A4 were produced as reported previously [45] and used for assays and crystallization, respectively; made in house; details: rate constant for reduction of inhibitor-bound CYP3A4 with sodium dithionite
measurement-kind: k ET (s⁻¹)

I: CC(C)(C)OC(=O)NC(CSCC(Nc1ccccc1)C(=O)NCCCc1cccnc1)Cc1ccccc1 (stereo not drawn)
II: CC(C)(C)OC(=O)NC(CSC(Cc1ccccc1)C(=O)NCCCc1cccnc1)Cc1cccc2ccccc12 (stereo not drawn) [Compound 3g]
Returns: the label, I or II , whose recorded k ET is the lower number. // respond with label for picked entry II

###

biological target: CYP3A4 (Homo sapiens, UniProt P08684)
Sequence (P08684 whole entry): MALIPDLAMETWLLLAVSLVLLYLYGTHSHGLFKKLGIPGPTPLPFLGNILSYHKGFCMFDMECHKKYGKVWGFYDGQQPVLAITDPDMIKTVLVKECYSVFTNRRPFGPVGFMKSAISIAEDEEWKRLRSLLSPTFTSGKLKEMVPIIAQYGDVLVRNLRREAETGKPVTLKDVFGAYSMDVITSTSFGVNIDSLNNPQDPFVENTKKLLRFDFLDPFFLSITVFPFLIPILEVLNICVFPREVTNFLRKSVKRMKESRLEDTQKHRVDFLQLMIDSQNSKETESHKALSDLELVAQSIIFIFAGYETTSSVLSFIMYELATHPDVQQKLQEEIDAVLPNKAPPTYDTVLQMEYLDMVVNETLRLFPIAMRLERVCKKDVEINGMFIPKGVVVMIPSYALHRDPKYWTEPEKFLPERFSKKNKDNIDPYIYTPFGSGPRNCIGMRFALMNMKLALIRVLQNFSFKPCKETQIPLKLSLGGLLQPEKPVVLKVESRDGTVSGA
measurement-kind: pKd
Remember the convention: pKd equals -log10 of concentration in molar.

Tested on CYP3A4 (Homo sapiens, UniProt P08684): CC(C)(C)OC(=O)N[C@H](CS[C@H](Cc1ccccc1)C(=O)NCCCc1cccnc1)Cc1c[nH]c2ccccc12 [Compound 3e] . Observed pKd: 7.72

###

molecular target: UniProt:P08684; experiment: H2O2-dependent heme depletion assay; set-up: Codon-optimized full-length and Δ3–22 human CYP3A4 were produced as reported previously [45] and used for assays and crystallization, respectively; made in house; conditions: 1.6 μM CYP3A4, 16 μM inhibitor, 10 mM H2O2, 120 min, relative to ligand-free CYP3A4 (100% decay)
measurement-kind: % decay (heme destroyed at the end of the reaction) (%)

As a guide, the following entries are already answered.
CC(C)(C)OC(=O)NC(CSC(Cc1ccccc1)C(=O)NCCCc1cccnc1)Cc1ccccc1 (stereo not shown) [Compound 3a] :: 18
CC(C)(C)OC(=O)N[C@@H](CS[C@H](Cc1ccccc1)C(=O)NCCCc1cccnc1)Cc1ccccc1 :: 22

a: CC(C)(C)OC(=O)NC(CSC(Cc1ccccc1)C(=O)NCCOCc1cccnc1)Cc1ccccc1 (stereo not shown)
b: CC(C)(C)OC(=O)N[C@H](CS[C@H](Cc1ccccc1)C(=O)NCCCc1cccnc1)Cc1c[nH]c2ccccc12
Sorting by % decay (heme destroyed at the end of the reaction) in descending order, would a or b appear first? Respond with the label that goes with your answer. a
(a: 34%, b: 18%)

###

biological target: CYP3A4 (Homo sapiens, UniProt P08684); experiment: Stopped-flow kinetics of ligand binding; design: Codon-optimized full-length and Δ3–22 human CYP3A4 were produced as reported previously [45] and used for assays and crystallization, respectively; made in house; settings: rate constant for the fast phase of the ligand binding reaction
measurement-kind: k fast (s⁻¹)

Below: 6 molecules and their reported k fast.
CC(C)(C)OC(=O)NC(CSC(Cc1ccccc1)C(=O)NCCCc1cccnc1)Cc1cccc2ccccc12 (centres unmarked) :: 10.8
CC(C)(C)OC(=O)NC(CSCC(Nc1ccccc1)C(=O)NCCCc1cccnc1)Cc1ccccc1 (centres unmarked) :: 16.2
CC(C)(C)OC(=O)N[C@@H](CS[C@H](Cc1ccccc1)C(=O)NCCCc1cccnc1)Cc1ccccc1 :: 12.0
CC(C)(C)OC(=O)NC(CSC(Cc1ccccc1)C(=O)NCCCc1cccnc1)Cc1ccccc1 (centres unmarked) :: 12.5
CC(C)(C)OC(=O)NC(CSC(Cc1ccccc1)C(=O)NCCOCc1cccnc1)Cc1ccccc1 (centres unmarked) :: 9.5
CC(C)(C)OC(=O)N[C@H](CS[C@@H](Cc1ccccc1)C(=O)NCCCc1cccnc1)Cc1cccc2ccccc12 :: 16.1

1: CC(C)(C)OC(=O)N[C@@H](CS[C@H](Cc1ccccc1)C(=O)NCCCc1cccnc1)Cc1cccc2ccccc12
2: CC(C)(C)OC(=O)N[C@H](CS[C@H](Cc1ccccc1)C(=O)NCCCc1cccnc1)Cc1c[nH]c2ccccc12
Which of the two items, 1 and 2 , has the greater recorded k fast? Select an item and report its label. 2
(2: 20.1 s⁻¹, 1: 12.3 s⁻¹)
